Where do these numbers come from? They come from patent US20220087987A1.

system: ARID1A-KO HCT116 cells; assay: Drug library screen, cell viability (CellTiter-Glo); format: cell-based, human; conditions: HCT116 ARID1A-KO; 10 μM for 5 days; relative to cells treated with solvent (DMSO)
Field: label. Allowed values: YES (Cell viability, KO < 100) or NO (Cell viability, KO >= 100).

{"columns": ["Compound", "Class Name"],
 "data": [
  ["Nc1ncn([C@@H]2O[C@H](CO)[C@@H](O)[C@H]2O)c(=O)n1", "YES"],
  ["COc1cc2ncnc(Nc3cccc(Cl)c3)c2cc1OC", "NO"],
  ["Cc1cc(C=C2C(=O)C=CC2=O)cc(C)c1O", "NO"],
  ["CC(C)(c1ccc(OCC2CO2)cc1)c1ccc(OCC2CO2)cc1 (centres unmarked)", "NO"],
  ["C/C(O)=C(\\C#N)C(=O)Nc1cc(Br)ccc1Br", "NO"]
]}
